Entries and their measured amount of TH in LC section 4 follow.
- Test system: tyrosine hydroxylase (TH) protein
- protocol_text: Induction of tyrosine hydroxylase (TH) in LC, SN and VTA of the mouse brain
- Type: in vivo, Balb/C mouse
- applied_conditions: LC section 4, i.p. 20 mg/kg, three days after single injection, relative to mean value of control group
- Procedure: A search is made among the compounds for those which are capable of bringing about an increase in the tyrosine hydroxylase (TH) protein in the locus coeruleus (LC), substantia nigra (SN) and ventral tegmental area (VTA) of the brain of the Balb/C mouse. […] Serial coronal sections 20 microns thick are then taken using a cryomicrotome. […] The amounts of TH present in each sample are measured by immunochemistry, fluorimetric detection and image analysis.
Please give a number only; it is taken to be in %.

Here are 5 compounds together with their reported answers.
compound	units_of_measure	amount of TH in LC section 4
C=CCN1CCCC(C(=O)Nn2ccc3cc(Cl)ccc32)C1 (stereo not shown) [Example 12]	%	110
O=C(Nn1ccc2ccccc21)C1CCCN(CCN2CCCCC2)C1 (stereo not shown) [Example 24]	%	127
O=C(Nn1ccc2ccccc21)C1CCCN(CCN2CCN(CCO)CC2)C1 (stereo not shown) [Example 26]	%	107
CN1CCC=C(C(=O)Nn2ccc3ccccc32)C1 [Example 1]	%	128
CN(C)CCN1CCCC(C(=O)Nn2ccc3ccccc32)C1 (stereo not shown) [Example 22]	%	98

Sample CN1CCC=C(C(=O)Nn2ccc3cc(F)ccc32)C1 [Example 7] — what was its amount of TH in LC section 4?
119

###

- Tested on: tyrosine hydroxylase (TH) protein
- protocol_text: Induction of tyrosine hydroxylase (TH) in LC, SN and VTA of the mouse brain
- Assay type: in vivo, Balb/C mouse
- applied_conditions: substantia nigra, single i.p. injection, relative to mean value of control group
Marks after values point to notes of the source that are not given here.
recorded_endpoint: TH induction in the SN

compound	TH induction in the SN
CN1CCC=C(C(=O)Nn2ccc3cc(F)ccc32)C1 [Example 7]	88* %
C=CCN1CCCC(C(=O)Nn2ccc3cc(Cl)ccc32)C1 (stereo not shown) [Example 12]	122* %
CN1CCC=C(C(=O)NN2CCc3ccccc32)C1 [Example 15]	91%

Next item in the queue.
Sample CN1CCC=C(C(=O)Nn2ccc3ccccc32)C1 [Example 1] — what was its TH induction in the SN?
155** %

###

- System: muscarinic (M) receptors
- protocol_text: Affinity for receptors, displacement of labelled specific ligand: muscarinic
- Format: binding
- applied_conditions: concentration 10^−5 M
Entries and their measured % inhibition M follow.
Please give a number only; it is taken to be in %.

compound	recorded_endpoint	observed_value
CN1CCN(CCN2CCCC(C(=O)Nn3ccc4ccccc43)C2)CC1 (stereo not shown)	% inhibition M	27
C=CCN1CCCC(C(=O)Nn2ccc3cc(Cl)ccc32)C1 (stereo not shown)	% inhibition M	51
CN1CCC=C(C(=O)Nn2ccc3ccccc32)C1	% inhibition M	23

Sample `CN1CCN(CCN2CCC=C(C(=O)Nn3ccc4cc(Cl)ccc43)C2)CC1` — what was its % inhibition M?
10

###

Entries and their measured % inhibition σ follow.
- Tested on: sigma (σ) receptors (ligand: haloperidol)
- protocol_text: Affinity for receptors, displacement of labelled specific ligand: sigma
- Type: binding
- applied_conditions: concentration 10^−5 M
Please give a number only; it is taken to be in %.

molecule	assay_target	units_of_measure	% inhibition σ
C=CCN1CCCC(C(=O)Nn2ccc3cc(Cl)ccc32)C1 (stereo not shown)	sigma (σ) receptors (ligand: haloperidol)	%	85
CN1CCC=C(C(=O)Nn2ccc3ccccc32)C1	sigma (σ) receptors (ligand: haloperidol)	%	44
CN1CCN(CCN2CCCC(C(=O)Nn3ccc4ccccc43)C2)CC1 (stereo not shown)	sigma (σ) receptors (ligand: haloperidol)	%	100

Sample `CN1CCN(CCN2CCC=C(C(=O)Nn3ccc4cc(Cl)ccc43)C2)CC1` — what was its % inhibition σ?
67
